Catalogue of compounds with associated Ki
experimental_system: rat P2X3 receptor (Rattus norvegicus, UniProt P49654)
Construct: expressed in transfected cells; host or cells: CHO-K1
Sequence (P49654 whole entry): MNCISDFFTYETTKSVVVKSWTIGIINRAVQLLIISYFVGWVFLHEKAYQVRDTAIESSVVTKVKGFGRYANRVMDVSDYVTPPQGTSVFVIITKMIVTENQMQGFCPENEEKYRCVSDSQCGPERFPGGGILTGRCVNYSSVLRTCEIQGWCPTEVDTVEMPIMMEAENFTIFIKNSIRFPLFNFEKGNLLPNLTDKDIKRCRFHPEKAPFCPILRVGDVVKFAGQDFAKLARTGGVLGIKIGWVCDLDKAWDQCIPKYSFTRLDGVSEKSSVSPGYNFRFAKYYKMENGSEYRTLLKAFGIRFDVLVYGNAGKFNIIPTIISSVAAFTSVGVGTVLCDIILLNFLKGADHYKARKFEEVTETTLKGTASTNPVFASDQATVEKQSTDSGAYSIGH
experimental_details: P2X3/P2X2/3 FLIPR (Fluorometric Imaging Plate Reader) Assay, P2X3
Format: cell-based
applied_conditions: CHO-K1 cells transfected with rat P2X3; agonist α,β-meATP 1 μM; Table 1; read-out: P2X3 pKi (converted)
quantity_kind: Ki (nM)

compound	quantity_kind	measured_result
COC[C@@H](C)NC(=O)c1cc(-c2ccc(C)cc2)cc(-n2nc(C)nc2C(C)C)c1 [Compound 27]	Ki	100
COC[C@@H](C)NC(=O)c1cc(-c2ccc(C)cc2F)cc(-n2ncnc2C(C)C)c1 [Compound 33]	Ki	4.07
Cc1ccc(-c2cc(C(=O)NC(C)CO)cc(-n3ncnc3C(C)C)c2)c(F)c1 (centres unmarked) [Compound 34]	Ki	3.24
CCn1cc(-c2cc(C(=O)N[C@@H](C)CO)cc(-c3ccc(C)cc3)c2)nn1 [Compound 40]	Ki	10000
C[C@@H](CO)NC(=O)c1cc(-c2ccc(Cl)cn2)cc(-n2ncnc2CF)c1 [Compound 93]	Ki	575
Cc1ccc(-c2cc(C(=O)NC(C)c3cnccn3)cc(-n3cnnc3C(C)C)c2)cc1 (centres unmarked) [Compound 19]	Ki	5.89
CCn1cnnc1-c1cc(C(=O)NC(C)c2cnccn2)cc(-c2ccc(C)cc2)c1 (centres unmarked) [Compound 43]	Ki	7.76
COC[C@@H](C)NC(=O)c1cc(-c2ccc(C)cc2)cc(-n2ncnc2C(C)C)c1 [Compound 15]	Ki	10.2
Cc1ccc(-c2cc(C(=O)NC3CC3)cc(-n3ncnc3C(C)N(C)C)c2)cc1 (centres unmarked) [Compound 104]	Ki	7.76
Cc1ccc(-c2cc(C(=O)N[C@@H](C)CO)cc(-n3ncnc3C(C)C)c2)c(F)c1 [Compound 35]	Ki	1.7
Cc1ccc(-c2cc(C(=O)NC(C)CO)cc(-n3nc(C)nc3C(C)C)c2)cc1 (centres unmarked) [Compound 28]	Ki	64.6
CCCc1ncnn1-c1cc(C(=O)NCc2cnc(C)cn2)cc(-c2ccc(C)cn2)c1 [Compound 116]	Ki	2.51
COC(C)c1ncnn1-c1cc(C(=O)NC(C)c2cnccn2)cc(-c2ccc(C)cc2)c1 (centres unmarked) [Compound 48]	Ki	3.89
Cc1ccc(-c2cc(C(=O)N[C@@H](C)CO)cc(-n3ncnc3C3CC3)c2)nc1 [Compound 59]	Ki	77.6
Cc1ccc(-c2cc(C(=O)NC(C)CO)cc(-n3nncc3C(C)C)c2)cc1 (centres unmarked) [Compound 11]	Ki	5.25
CCOCCc1ncnn1-c1cc(C(=O)N[C@@H](C)CO)cc(-c2ccc(C)cn2)c1 [Compound 150]	Ki	158
Cc1ccc(-c2cc(C(=O)NCc3ccn(C)c(=O)c3)cc(-n3ncnc3C(C)C)c2)nc1 [Compound 159]	Ki	2.95
